Target: 1-phosphatidylinositol 4,5-bisphosphate phosphodiesterase beta-3 (Homo sapiens)
Assay: PLC-beta3 inhibitor confirmation, biochemical, fluorescence, purified enzyme (AID 743261)
Conditions: purified PLC-beta3, fluorogenic substrate fluorescence; at 12.3 µM; hits give high values
Hit rate of the full screen: of about 3,300 compounds, about 35 (1%) were called active. Not all results are given here.
Attribute: inhibition

The following molecules have reported results that may help.
Q: For the molecule "COc1ccc(/C(C)=N/N2CCOCC2)c(O)c1" , give its measured inhibition value.
Ans: -14.9% (inactive)

Q: For the molecule "O=C1NC2(CCCCC2)N=C1c1ccccc1" , give its measured inhibition value.
Ans: -4.41% (inactive)

Q: For the molecule "Nc1nnc(SCC(=O)OCc2ccc(Cl)c(Cl)c2)s1" , give its measured inhibition value.
Ans: -2.66% (inactive)

Q: For the molecule "Cc1nc(Nc2ccccc2C)c2cnn(C)c2n1" , give its measured inhibition value.
Ans: -0.91% (inactive)

Next:
Q: For the molecule COc1ccc(C(CNC(=O)c2cc(S(=O)(=O)Nc3cccc(C)c3)ccc2C)N2CCCC2)cc1 (stereo not drawn) , give its measured inhibition value.
Ans: -3.32% (inactive)

Q: For the molecule O=C(NCc1cccnc1)c1cc(C2CCCCN2C(=O)CCc2ccccc2)on1 (stereo not drawn) , give its measured inhibition value.
Ans: 1.6% (inactive)

---

Target: 1-phosphatidylinositol 4,5-bisphosphate phosphodiesterase beta-3 (Homo sapiens) (UniProt Q01970)
Sequence (Q01970 whole entry, looked up): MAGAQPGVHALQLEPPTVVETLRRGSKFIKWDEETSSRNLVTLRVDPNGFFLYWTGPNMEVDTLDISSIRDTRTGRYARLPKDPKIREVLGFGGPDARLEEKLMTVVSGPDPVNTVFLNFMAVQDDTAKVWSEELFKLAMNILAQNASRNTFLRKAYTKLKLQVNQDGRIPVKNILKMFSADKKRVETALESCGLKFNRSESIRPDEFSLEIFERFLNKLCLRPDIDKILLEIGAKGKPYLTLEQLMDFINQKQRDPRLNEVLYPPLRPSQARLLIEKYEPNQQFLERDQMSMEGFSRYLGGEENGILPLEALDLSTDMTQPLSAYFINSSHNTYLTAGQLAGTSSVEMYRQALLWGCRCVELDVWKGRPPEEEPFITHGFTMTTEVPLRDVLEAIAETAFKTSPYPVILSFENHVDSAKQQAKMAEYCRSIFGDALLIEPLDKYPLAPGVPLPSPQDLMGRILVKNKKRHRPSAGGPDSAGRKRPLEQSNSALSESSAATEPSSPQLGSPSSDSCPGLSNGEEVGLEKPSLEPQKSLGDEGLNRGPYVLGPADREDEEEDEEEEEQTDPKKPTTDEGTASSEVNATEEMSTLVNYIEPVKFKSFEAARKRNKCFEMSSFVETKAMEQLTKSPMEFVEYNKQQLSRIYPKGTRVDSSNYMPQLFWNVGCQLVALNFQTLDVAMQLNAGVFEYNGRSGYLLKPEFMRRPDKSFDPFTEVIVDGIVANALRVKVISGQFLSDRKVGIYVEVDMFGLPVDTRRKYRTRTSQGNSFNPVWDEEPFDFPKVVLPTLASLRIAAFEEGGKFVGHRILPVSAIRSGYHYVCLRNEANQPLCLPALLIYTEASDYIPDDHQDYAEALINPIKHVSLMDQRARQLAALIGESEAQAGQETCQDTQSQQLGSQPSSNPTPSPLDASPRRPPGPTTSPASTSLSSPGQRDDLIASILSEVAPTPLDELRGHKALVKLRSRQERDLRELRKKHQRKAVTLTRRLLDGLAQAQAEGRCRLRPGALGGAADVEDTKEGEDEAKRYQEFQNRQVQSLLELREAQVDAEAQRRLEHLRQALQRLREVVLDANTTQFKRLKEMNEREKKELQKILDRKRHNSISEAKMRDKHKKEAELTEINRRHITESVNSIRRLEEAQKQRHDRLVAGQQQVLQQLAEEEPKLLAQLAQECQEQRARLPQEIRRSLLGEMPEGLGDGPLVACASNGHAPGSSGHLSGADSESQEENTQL
Experiment: PLC-beta3 inhibitor confirmation, biochemical, fluorescence, purified enzyme (AID 743261)
Conditions: purified PLC-beta3, fluorogenic substrate fluorescence; at 12.3 µM; hits give high values
Among all 3,300 compounds or so, about 35 (1%) were called active. A selection follows.
parameter_measured: inhibition (%)
Supply the numeric figure in %, leaving out any unit text.

Q: For the compound "CN(C(=O)c1ccc(NC(=O)Cc2cccc(NC(=O)C3CCN(C(=O)c4ccccc4)CC3)c2)cc1)C1CC1" , give its measured inhibition value.
Ans: -1

Q: For the compound "CC(C)Oc1ccc(CC(=O)NNC(=S)Nc2ccc(Br)cc2)cc1" , give its measured inhibition value.
Ans: -6.23

Q: For the compound "O=c1c2ccccc2c(-c2ccccc2)nn1Cc1ccccc1" , give its measured inhibition value.
Ans: -6.9

Q: For the compound "O=S1(=O)c2ccc(Br)cc2OC[C@H](Cc2ccccc2)N1Cc1cn(Cc2ccccc2)nn1" , give its measured inhibition value.
Ans: 6.58

Q: For the compound COC(=O)NC1(C(F)(F)F)NC(=O)N(C2CCCCC2)C1=O (stereo not given) , give its measured inhibition value.
Ans: 2.36

Q: For the compound "Cc1ccc(/C=N/NC(=O)CSc2nc3ccccc3o2)cc1" , give its measured inhibition value.
Ans: -1.23

Q: For the compound "FC(F)(F)c1cnc(Oc2ccccc2-c2nnc(-c3ccc(Cl)cc3)o2)c(Cl)c1" , give its measured inhibition value.
Ans: -7.7

Q: For the compound Cc1ccc(N2CC(C(=O)NCCS(=O)(=O)N3CCN(c4ccccc4)CC3)CC2=O)cc1 (stereo not given) , give its measured inhibition value.
Ans: 3.26

Q: For the compound "Cc1cccc([C@@H]2[C@@H]3C(=O)N(Cc4ccccc4)C(=O)[C@@H]3[C@]3(Cc4ccc(Cl)cc4)C(=O)N(c4cccc(Cl)c4)C(=O)N23)c1" , give its measured inhibition value.
Ans: 5.38

Consider the record given below.
Q: For the compound "CNC(=O)c1ccc(NC(=O)c2cccc(C(F)(F)F)c2)cc1" , give its measured inhibition value.
Ans: -1.78
